Exercise: for every item that follows, state its recorded efflux ratio at 3 h, 5 µM.
- Experiment Description: Caco-2 permeability assay
- Format: in vitro ADME
- Test Parameters: human; Caco-2, (Papp B-A)/(Papp A-B)
Format: numeric value only, no unit, no commentary.

Task: Which efflux ratio at 3 h, 5 µM is reported for this molecule? COc1ccc(S(=O)(=O)N(C)C[C@H]2O[C@@H](n3cc(C#Cc4ccc(C(N)=O)cc4)c4c(N)ncnc43)[C@H](O)[C@@H]2O)cc1C#N [Compound 12r]
Output: 0.1

Task: Which efflux ratio at 3 h, 5 µM is reported for this molecule? COc1ccc(S(=O)(=O)N(C)C[C@H]2O[C@@H](n3cc(C#Cc4cccnc4)c4c(N)ncnc43)[C@H](O)[C@@H]2O)cc1C#N [Compound 12s]
Output: 1.3

Task: Which efflux ratio at 3 h, 5 µM is reported for this molecule? COc1ccc(S(=O)(=O)N(C)C[C@H]2O[C@@H](n3cc(C#Cc4cnc5ccccc5c4)c4c(N)ncnc43)[C@H](O)[C@@H]2O)cc1C#N [Compound 12q]
Output: 0.4

Task: Which efflux ratio at 3 h, 5 µM is reported for this molecule? CCN(C[C@H]1O[C@@H](n2cc(C#Cc3cccnc3)c3c(N)ncnc32)[C@H](O)[C@@H]1O)S(=O)(=O)c1ccc(OC)c(C#N)c1 [Compound 12l]
Output: 0.9
